biological target: Aspartate--tRNA(Asp/Asn) ligase (Mycobacterium tuberculosis (strain ATCC 25618 / H37Rv)) (UniProt P9WFW3); assay: Assay for Asp RNA synthetase-1 from Mycobacterium tuberculosis; type: functional; set-up: scale not given: direction of the effect not stated beside the values; settings: 30 µM; also: in the data most compounds retested in dose-response had high values
Sequence (P9WFW3 whole entry): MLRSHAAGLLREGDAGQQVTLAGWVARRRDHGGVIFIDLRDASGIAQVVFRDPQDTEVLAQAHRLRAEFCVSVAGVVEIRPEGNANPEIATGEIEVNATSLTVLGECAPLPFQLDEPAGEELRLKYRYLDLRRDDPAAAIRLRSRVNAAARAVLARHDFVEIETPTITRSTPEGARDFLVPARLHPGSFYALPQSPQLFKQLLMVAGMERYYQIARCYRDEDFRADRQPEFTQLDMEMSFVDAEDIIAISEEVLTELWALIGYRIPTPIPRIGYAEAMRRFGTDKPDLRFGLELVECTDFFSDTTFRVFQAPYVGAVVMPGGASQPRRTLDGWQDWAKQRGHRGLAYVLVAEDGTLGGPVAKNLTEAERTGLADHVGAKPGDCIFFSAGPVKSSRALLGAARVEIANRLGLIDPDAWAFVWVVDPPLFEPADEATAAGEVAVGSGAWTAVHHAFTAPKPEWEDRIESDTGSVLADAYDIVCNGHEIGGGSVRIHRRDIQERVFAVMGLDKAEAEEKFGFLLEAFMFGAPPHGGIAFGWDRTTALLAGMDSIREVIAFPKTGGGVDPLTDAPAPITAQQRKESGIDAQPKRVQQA
Recorded measurements of Percent Effect, one per entry
Report only the number, with the unit % understood.

Cc1noc([C@@H]2CC[C@@H]3[C@@H](CCN3S(=O)(=O)c3cccnc3)O2)n1 ... 0.127

In: Suppose we examine the molecule CCCOc1cccc(CNC(=O)CN2CCN(C)CC2C)c1 (stereo unspecified) ; what Percent Effect value has been reported?
Out: 2.62

In: # iterate: Cc1cnn(CC2CCCN2Cc2coc(-c3ccccc3)n2)c1 (stereo unspecified)
Out: -5.72

====

tested on: Trypanosoma cruzi; test: Trypanosoma cruzi phosphomannomutase and mannose-1-phosphate guanylyltransferase assay; format: functional; design: scale not given: direction of the effect not stated beside the values; conditions: 10 µM
measurementName: Percent Effect (%)
Report only the number, with the unit % understood.

Recorded results for 5 molecules are shown here.
c1cncc(COC[C@H]2CC[C@H]3[C@H](CCN3Cc3cccs3)O2)c1 ... -0.197
CCS(=O)(=O)NC[C@]12COC[C@H]1CN(Cc1cc(C)on1)C2 ... -0.684
O=C(c1ccsc1)N1CCN2C[C@H](OCc3cccnc3)C[C@H]2C1 ... -4.53
O=C(Cc1cccs1)N1C[C@@H]2OCCN(CC3CCCC3)[C@@H]2C1 ... 1.59
c1ccc(O[C@H]2CC[C@H]3[C@H]2OCCN3Cc2nccs2)nc1 ... 7.57

In: Suppose we examine the molecule Cc1cc(CN2CC[C@H]3C[C@H](C)O[C@@H]3C2)no1 ; what Percent Effect value has been reported?
Out: 3.23

In: # iterate: COc1cccc(CNC(C)Cn2cccn2)c1OC (centres undefined)
Out: -0.749

In: # iterate: COCC(=O)NC1CC2(CCN(CCF)CC2)Oc2ccccc21 (centres undefined)
Out: -2.63

In: # iterate: CCN(CCc1ccccc1)Cn1nc(C)c2c(C)onc2c1=O
Out: 3.68

In: # iterate: CNCCc1nc2cc(Cl)ccc2[nH]1
Out: -7.11

In: # iterate: Cc1noc(C)c1CN1CCO[C@H]2CNC[C@H]21
Out: -4.19

In: # iterate: COCCN1CCC2(COCc3cnc(N4CCOCC4)nc32)C1 (centres undefined)
Out: -5.91

====

Recorded measurements of Percent Effect, one per entry
molecular target: Aspartate--tRNA(Asp/Asn) ligase (Mycobacterium tuberculosis (strain ATCC 25618 / H37Rv)) (UniProt P9WFW3); assay: Assay for Asp RNA synthetase-1 from Mycobacterium tuberculosis; format: functional; parameters: scale not given: direction of the effect not stated beside the values; details: 30 µM; also: in the data most compounds retested in dose-response had high values
Report only the number, with the unit % understood.

Recorded results for 10 compounds are shown here.
Cc1scc(C(=O)N2CCC3(CC(=O)NC3=O)C2)c1-c1ccccc1 (configuration not stated) ... 0.19
O=C(CCc1nccs1)N1CCCC(N2CCNC2=O)C1 (configuration not stated) ... 6.01
CCOCC1CN(C(=O)c2cscn2)Cc2nnn(CC3CC3)c21 (configuration not stated) ... -4.51
O=C(CN1CCCC(Cn2cncn2)C1)NCc1ccco1 (configuration not stated) ... -4.69
O=C1CC(c2ccccc2)c2c(n3ccsc3nc2=O)N1 (configuration not stated) ... -1.74
CN(C)C(C(=O)N1CCC(N2CCSCC2)CC1)c1ccccc1F (configuration not stated) ... -8.47
CC(C)CN1CCC2(CCN(C(=O)c3ccc(F)cc3)CC2)C1=O ... -3.41
Cc1[nH]nc(CCC(=O)N2CCCC(OCc3cccnc3)C2)c1C (configuration not stated) ... -6.25
Cc1nn(C)cc1CNC(=O)c1cn(CCC2CCCCN2)nn1 (configuration not stated) ... -2.13
Cc1nc(COC[C@@H]2CC[C@H]3[C@H](CCN3c3ncccn3)O2)cs1 ... 1.87

In: Suppose we examine the compound CC(NC(=O)Cn1cccn1)c1cccnc1 (configuration not stated) ; what Percent Effect value has been reported?
Out: -1.34

In: # iterate: Cc1ccc(CCC(=O)N(C)CCN2CCOCC2)c(C)c1
Out: -4.01

In: # iterate: CN1CC(=O)N(c2cccc(F)c2)CC12CCN(Cc1cccnc1)C2 (configuration not stated)
Out: 2.03

In: # iterate: CCn1cc(NC(=O)NCC(O)CN2CCc3ccccc3C2)cn1 (configuration not stated)
Out: 6.51

In: # iterate: Cc1ccc(C(=O)N2CCn3cc(CN4CCCCC4)nc3C2)o1
Out: 8.53
